TEST SYSTEM: aldose reductase enzyme (Homo sapiens)
EXPERIMENTAL ENDPOINT: IC50 (µM)
Write the number in µM without appending the unit.

Query: Entry under review: COC(=O)C1(O)CC(O)C(OC(=O)C=Cc2ccc(O)c(O)c2)C(OC(=O)C=Cc2ccc(O)c(O)c2)C1 (stereo not shown) . Reported IC50?
Result: 16.8
